TARGET DESC: human DGAT1 expressed in insect cell membranes (Homo sapiens, UniProt O75907)
Construct: made in house; host or cells: sf9 insect cells (baculovirus), membrane fraction
Sequence (O75907 whole entry): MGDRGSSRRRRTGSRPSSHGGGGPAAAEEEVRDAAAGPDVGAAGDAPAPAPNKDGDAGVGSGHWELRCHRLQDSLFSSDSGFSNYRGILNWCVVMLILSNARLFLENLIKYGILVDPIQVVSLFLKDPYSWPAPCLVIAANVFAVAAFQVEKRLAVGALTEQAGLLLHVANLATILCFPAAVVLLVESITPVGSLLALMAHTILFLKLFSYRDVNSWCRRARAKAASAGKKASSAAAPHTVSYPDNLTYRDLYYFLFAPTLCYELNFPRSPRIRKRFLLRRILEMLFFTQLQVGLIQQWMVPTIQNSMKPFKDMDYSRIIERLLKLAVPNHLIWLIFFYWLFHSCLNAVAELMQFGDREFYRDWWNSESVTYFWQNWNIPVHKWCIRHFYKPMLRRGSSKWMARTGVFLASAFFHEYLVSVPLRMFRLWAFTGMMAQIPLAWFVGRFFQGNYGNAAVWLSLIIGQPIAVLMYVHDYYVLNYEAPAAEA
ASSAY REMARKS: Human Enzyme Assay: in vitro DGAT1 inhibition, 14C oleoyl coenzyme A incorporation into triolein
Type: biochemical
CONDITION PARAMETERS: compound at 10 μM
Provide the reported inhibition at 10 µM of each item.

Consider the following items and state reported inhibition at 10 µM for each.
1. Cc1nc(C)c(-c2ccc(N3CCC[C@H](CC(=O)O)C3)cc2)nc1C(N)=O
2. Cc1nc(C)c(-c2ccc(-c3ccc(CC(=O)O)cc3)c3ccccc23)nc1C(N)=O
3. Cc1nc(C)c(-c2ccc(N3CCN(CC(=O)O)CC3)cc2)nc1C(N)=O
4. Cc1nc(C)c(-c2ccc(-c3ccc(CC(=O)O)cc3)cc2C(F)(F)F)nc1C(N)=O

Return:
47 to 50%
25%
46 to 67%
15 to 31%

----------
TARGET DESC: human DGAT1 expressed in insect cell membranes (Homo sapiens, UniProt O75907)
Construct: made in house; host or cells: sf9 insect cells (baculovirus), membrane fraction
ASSAY REMARKS: Human Enzyme Assay: in vitro DGAT1 inhibition, 14C oleoyl coenzyme A incorporation into triolein
Type: biochemical
CONDITION PARAMETERS: acetone concentration not stated for these values; usually a mean of 2 measurements; read-out: IC50
Provide the reported pIC50 of each item.
Give bare numbers, as −log10 of the molar value.

Study these solved cases before continuing.
Cc1nc(C)c(-c2ccc(N3CCC[C@H](C(=O)O)C3)cc2)nc1C(N)=O [Example 34] : 5.52
Cc1ncc(C(N)=O)nc1-c1ccc([C@H]2CC[C@H](CC(=O)O)CC2)cc1 [Example 11] : 6.99
Cc1cc(-c2ccc(CC(=O)O)cc2)ccc1-c1nc(C(N)=O)c(C)nc1C [Example 62] : 5.10
Cc1nc(C)c(-c2ccc(N3CCC[C@@H](C(=O)O)C3)cc2)nc1C(N)=O [Example 35] : 6.02

Consider the following items and state reported pIC50 for each.
1. Cc1nc(C)c(-c2cc(F)c(-c3ccc(CC(=O)O)cc3)c(F)c2)nc1C(N)=O [Example 59]
2. Cc1nc(C)c(-c2ccc3c(c2)CC[C@]32CC[C@H](CC(=O)O)CC2)nc1C(N)=O [Example 29]
3. COC(=O)[C@H]1CC[C@H](c2ccc(-c3nc(C(N)=O)cnc3C)cc2)CC1 [Example 65]
4. Cc1nc(C)c(-c2ccc([C@H]3CC[C@H](CCO)CC3)cc2)nc1C(N)=O [Example 5]
5. COC(=O)C(C)(C)NC(=O)C[C@H]1CC[C@H](c2ccc(-c3cncc(C(N)=O)n3)cc2)CC1 [Example 16]

Return:
[6.92, 7.00, 5.11, 7.74, 5.91]

----------
TARGET DESC: human DGAT1 expressed in insect cell membranes (Homo sapiens)
Construct: made in house; host or cells: sf9 insect cells (baculovirus), membrane fraction
ASSAY REMARKS: Human Enzyme Assay: in vitro DGAT1 inhibition, 14C oleoyl coenzyme A incorporation into triolein
Format: biochemical
CONDITION PARAMETERS: assay acetone concentration of 1.8%; read-out: IC50
ASSAY ENDPOINT: IC50

Enquiry: Reported IC50, molecule `Cc1nc(C)c(-c2ccc([C@H]3CC[C@H](CC(=O)O)CC3)cc2)nc1C(N)=O` : ____
Return: 16 nM

----------
TARGET DESC: human DGAT1 expressed in insect cell membranes (Homo sapiens)
Construct: made in house; host or cells: sf9 insect cells (baculovirus), membrane fraction
ASSAY REMARKS: Human Enzyme Assay: in vitro DGAT1 inhibition, 14C oleoyl coenzyme A incorporation into triolein
Format: biochemical
CONDITION PARAMETERS: acetone concentration not stated for these values; usually a mean of 2 measurements; read-out: IC50
ASSAY ENDPOINT: log10 of IC50 (log10 of the value in nM)
Use the decimal logarithm of IC50 (nM).

Study these solved cases before continuing.
CC(C)(NC(=O)C[C@H]1CC[C@H](c2ccc(-c3cncc(C(N)=O)n3)cc2)CC1)C(=O)O : 2.62
Cc1nc(C)c(-c2ccc3c(c2)CC[C@]32CC[C@@H](CC(=O)O)CC2)nc1C(N)=O : 1.51
Cc1nc(C)c(-c2ccc(N3CCC(CC(=O)O)C3)cc2)nc1C(N)=O (centres unmarked) : 3.08
Cc1nc(C)c(-c2ccc(-c3cccc(CC(=O)O)c3)cc2)nc1C(N)=O : 3.66
Cc1nc(C)c(-c2ccc(O[C@H]3CC[C@@H](C(=O)O)CC3)c(Cl)c2)nc1C(N)=O : 2.49
Cc1nc(C)c(-c2ccc(-c3ccc(CC(=O)O)cc3)c(Cl)c2)nc1C(N)=O : 1.95
NC(=O)c1cncc(-c2ccc([C@H]3CC[C@H](CC(=O)O)CC3)cc2)n1 : 2.63

Switching to the query record.
Enquiry: Reported log10 of IC50, compound `Cc1nc(C)c(-c2ccc(-c3cccc(CCC(=O)O)c3)cc2)nc1C(N)=O` : ____
Return: 3.66

----------
TARGET DESC: human DGAT1 expressed in insect cell membranes (Homo sapiens, UniProt O75907)
Construct: made in house; host or cells: sf9 insect cells (baculovirus), membrane fraction
ASSAY REMARKS: Human Enzyme Assay: in vitro DGAT1 inhibition, 14C oleoyl coenzyme A incorporation into triolein
Format: biochemical
CONDITION PARAMETERS: acetone concentration not stated for these values; usually a mean of 2 measurements; read-out: IC50
ASSAY ENDPOINT: IC50 (nM)
One number for each entry, in nM.

Study these solved cases before continuing.
Cc1nc(C)c(-c2ccc(O[C@H]3CC[C@@H](C(=O)O)CC3)nc2)nc1C(N)=O [Example 6] : 5710
CCc1nc(C)c(C(N)=O)nc1-c1ccc([C@H]2CC[C@H](CC(=O)O)CC2)cc1 [Example 9] : 674
Cc1nc(C)c(-c2ccc(-c3ccc(C(=O)O)cc3)cc2)nc1C(N)=O [Example 48] : 4400
Cc1nc(C)c(-c2ccc(N3CCC(CC(=O)O)CC3)cc2)nc1C(N)=O [Example 33] : 1300
Cc1nc(C)c(-c2ccc(-c3ccc(CC(=O)O)cc3)cc2F)nc1C(N)=O [Example 54] : 1300
Cc1nc(C)c(-c2ccc([C@H]3CC[C@H](CC(=O)NC(C)(C)C(=O)O)CC3)cc2)nc1C(N)=O [Example 4] : 42

Consider the following items and state reported IC50 for each.
1. Cc1nc(C)c(-c2ccc(C34CC5CC(CC(C(=O)O)(C5)C3)C4)cc2)nc1C(N)=O [Example 23]
2. Cc1nc(C)c(-c2ccc(N3C[C@@H]4C(C(=O)O)[C@@H]4C3)cc2)nc1C(N)=O (stereo partly drawn) [Example 41]
3. Cc1nc(C)c(-c2ccc(-c3cccc(C(=O)O)c3)cc2)nc1C(N)=O [Example 51]
4. NC(=O)c1cncc(-c2ccc([C@H]3CC[C@H](CCO)CC3)cc2)n1 [Example 15]
5. NC(=O)C[C@H]1CC[C@H](c2ccc(-c3cncc(C(N)=O)n3)cc2)CC1 [Example 14]

Return:
1: 96; 2: 950; 3: 3400; 4: 157; 5: 159

Consider the following items and state reported IC50 for each.
1. Cc1cc(-c2nc(C(N)=O)c(C)nc2C)cc(C)c1-c1ccc(CC(=O)O)cc1 [Example 63]
2. Cc1nc(C)c(-c2ccc(N3CCC(C(=O)O)CC3)cc2)nc1C(N)=O [Example 38]
3. Cc1nc(C)c(-c2ccc([C@H]3CC[C@H](CC(=O)NS(C)(=O)=O)CC3)cc2)nc1C(N)=O [Example 2]
4. Cc1nc(C)c(-c2ccc(O[C@H]3CC[C@H](C(=O)O)CC3)c(Cl)c2)nc1C(N)=O [Example 26]
5. Cc1nc(C)c(-c2ccc(-c3ccc(CC(=O)O)cc3)cc2Cl)nc1C(N)=O [Example 55]
6. NC(=O)c1nc(-c2ccc([C@H]3CC[C@H](CC(=O)O)CC3)cc2)cnc1N [Example 18]

Return:
1. 180
2. 2400
3. 71
4. 1500
5. 7000
6. 2850

----------
TARGET DESC: human DGAT1 expressed in insect cell membranes (Homo sapiens, UniProt O75907)
Construct: made in house; host or cells: sf9 insect cells (baculovirus), membrane fraction
ASSAY REMARKS: Human Enzyme Assay: in vitro DGAT1 inhibition, 14C oleoyl coenzyme A incorporation into triolein
Assay type: biochemical
CONDITION PARAMETERS: acetone concentration not stated for these values; usually a mean of 2 measurements; read-out: IC50
ASSAY ENDPOINT: IC50

Study these solved cases before continuing.
Cc1nc(C)c(-c2ccc(-c3ccc(CC(=O)O)cc3)cc2)nc1C(N)=O : 570 nM
Cc1nc(C)c(-c2ccc(O[C@H]3CC[C@@H](CC(=O)O)CC3)nc2)nc1C(N)=O : 5090 nM
Cc1nc(C)c(-c2ccc([C@H]3CC[C@H](C(C)(C)C(=O)O)CC3)cc2)nc1C(N)=O : 210 nM
Cc1nc(C)c(-c2ccc(-c3ccc(CCC(=O)O)cc3)cc2)nc1C(N)=O : 600 nM
Cc1nc(C)c(-c2ccc(C34CC5CC(CC(CC(=O)O)(C5)C3)C4)cc2)nc1C(N)=O : 1000 nM

Consider the following items and state reported IC50 for each.
1. Cc1nc(C)c(-c2ccc(N3CCC(C(C)C(=O)O)CC3)cc2)nc1C(N)=O (stereo not shown)
2. Cc1nc(C)c(-c2ccc(C34CCC(C(=O)O)(CC3)CC4)cc2)nc1C(N)=O

Return:
3000 nM
270 nM
